Tested on: Rattus norvegicus
protocol-summary: Antiinflammatory activity against carrageenan-induced paw edema in Sprague-Dawley rat assessed as paw volume at 30 mg/kg, po measured 120 mins post challenge by plethysmometer (reference value: 1.13 +/- 0.04 ml)
Type: functional
Label rule met for high-side Activity (at or above 0.6 mL) and rule not met for low-side Activity (below it).

Sample answers from the record:
• COc1c(C)cnc(CNc2ccc3c(c2)nc(C)n3C[C@@H](O)[C@H]2O[C@H](O)[C@@H](O)[C@H]2O)c1C = rule not met
• COc1ccnc(CNc2ccc3[nH]c(C)nc3c2)c1C = rule met
• Cc1nc2cc(NCc3ccccn3)ccc2n1C[C@@H](O)[C@H]1O[C@H](O)[C@@H](O)[C@H]1O = rule met
• COc1ccnc(CNc2ccc3[nH]c(C)nc3c2)c1OC = rule met
• COc1ccnc(CNc2ccc3c(c2)nc(C)n3C[C@@H](O)[C@H]2O[C@H](O)[C@@H](O)[C@H]2O)c1C = rule met
• Cc1nc2cc(NCc3ccccn3)ccc2[nH]1 = rule met
• COc1c(C)cnc(CNc2ccc3[nH]c(C)nc3c2)c1C = rule met

Here is the next item to consider.
Check the entry COc1ccnc(CNc2ccc3c(c2)nc(C)n3C[C@@H](O)[C@H]2O[C@H](O)[C@@H](O)[C@H]2O)c1OC : does Activity equal or exceed 0.6 mL?
rule not met
